- Test system: Sindbis virus
- experiment description: Antiviral activity against Sindbis virus infected in HEK293T cells assessed as reduction in virus infection after 24 hrs by FITC-based assay
- Assay type: functional, cell-based
- measurement setup: HEK-293T

{"columns": ["sample smiles", "EC50"],
 "data": [
  ["CCCNC(=O)C1CCN(C(=O)c2cc3sc(-c4ccccc4)cc3n2Cc2ccc(OC)cc2)CC1", "1650 nM"]
]}

###

- experiment description: Half life in human liver microsomes
- Format: ADME, microsome
Examples of compounds with documented half-life follow.

{"columns": ["compound", "half-life (min)"],
 "data": [
  ["CCCNC(=O)C1CC12CCN(C(=O)c1cc3sc(Br)cc3n1Cc1ccc(OC)cc1)CC2 (centres undefined)", 5.83],
  ["CCCNC(=O)[C@@H]1CCCN1C(=O)c1cc2sc(Br)cc2n1Cc1ccc(OC)cc1", 18.2],
  ["CCCNC(=O)C1CCN(C(=O)c2cc3cc(Br)ccc3n2Cc2ccc(OC)cc2)CC1", 3.94],
  ["CCCNC(=O)C1CCN(C(=O)c2cc3sc(Br)nc3n2Cc2ccc(OC)cc2)CC1", 2.99],
  ["CCCCC(=O)C1CCN(C(=O)c2cc3sccc3n2Cc2ccc(OC)cc2)CC1", 6.3],
  ["[2H]C([2H])(c1ccc(OC)cc1)n1c(C(=O)N2CCC(C(=O)NC([2H])(C([2H])([2H])[2H])C([2H])([2H])[2H])CC2)cc2sc(Br)cc21", 3.8],
  ["CCCNC(=O)C1CCN(C(=O)c2cc3sc(C#N)cc3n2Cc2ccc(OC)cc2)CC1", 11.2],
  ["CCCNC(=O)C1CC12CCN(C(=O)c1cc3sc(-c4ccccc4)nc3n1Cc1ccc(OC)cc1)CC2 (centres undefined)", 41.8],
  ["CCCNC(=O)C1CN(C(=O)c2cc3sc(Br)cc3n2Cc2ccc(OC)cc2)C1", 7.73]
]}

###

- experiment description: Selectivity index, ratio of CC50 for HEK293T cells to EC50 for full length Gaussia princeps Gluc-tagged Chikungunya virus IMT
- Type: toxicity
- measurement setup: human, read-out: Ratio CC50/EC50
Let's look at some compounds and their measured selectivity ratio.

{"columns": ["compound", "selectivity ratio"],
 "data": [
  ["CCCNC(=O)C1CCN(C(=O)c2cccn2Cc2ccc(OC)cc2)CC1", "> 3.9"],
  ["CCCNC(=O)C1CC12CCN(C(=O)c1cc3sc(Br)cc3n1Cc1ccc(OC)cc1)CC2 (stereo not drawn)", "> 11"],
  ["CCCNC(=O)[C@H]1[C@@H]2CCC[C@H]1CN(C(=O)c1cc3sc(Br)nc3n1Cc1ccc(OC)cc1)C2", 4.3],
  ["CCCNC(=O)C1CCN(C(=O)c2cc3sc(-c4ccccc4)nc3n2Cc2ccc(OC)cc2)CC1", 7.6],
  ["CCCNC(=O)[C@@H]1C[C@H]2CCC[C@@H](C1)[C@@H]2NC(=O)c1cc2sc(Br)cc2n1Cc1ccc(OC)cc1", "> 7.1"],
  ["CCCNC(=O)C1CCN(C(=O)c2cc3[nH]ccc3n2Cc2ccc(OC)cc2)CC1", "> 8.8"],
  ["CCCNC(=O)C1CCN(C(=O)c2cc3occc3n2Cc2ccc(OC)cc2)CC1", 6.2],
  ["CCCNC(=O)C1CCN(C(=O)c2ccc(Br)n2Cc2ccc(OC)cc2)CC1", "> 6"],
  ["CCCNC(=O)C1CCN(C(=O)c2cc3[nH]cnc3n2Cc2ccc(OC)cc2)CC1", "> 2.3"],
  ["CCCNC(=O)[C@@H]1CCCN1C(=O)c1cc2sc(Br)cc2n1Cc1ccc(OC)cc1", 3.4],
  ["CCCNC(=O)C1CCN(C(=O)c2cc3sc(-c4ccccc4)cc3n2Cc2ccc(OC)cc2)CC1", "> 20"],
  ["CCCNC(=O)C1CCN(C(=O)c2cc3oc(Br)cc3n2Cc2ccc(OC)cc2)CC1", 11],
  ["CCCNC(=O)C1CC12CCN(C(=O)c1cc3sc(-c4ccccc4)nc3n1Cc1ccc(OC)cc1)CC2 (stereo not drawn)", "> 13"],
  ["CCCNC(=O)[C@@H]1C[C@H]2CCC[C@@H](C1)[C@@H]2NC(=O)c1cc2sc(-c3ccccc3)nc2n1Cc1ccc(OC)cc1", "> 19"],
  ["CCCNC(=O)C1CN(C(=O)c2cc3sc(Br)cc3n2Cc2ccc(OC)cc2)C1", "> 7.4"],
  ["[2H]C([2H])([2H])C([2H])(NC(=O)C1CCN(C(=O)c2cc3sc(Br)cc3n2Cc2ccc(OC)cc2)CC1)C([2H])([2H])[2H]", "> 65"],
  ["CCCNC(=O)C1CC12CCN(C(=O)c1cc3sc(Br)nc3n1Cc1ccc(OC)cc1)CC2 (stereo not drawn)", 9.9],
  ["CCCNC(=O)[C@@H]1[C@@H]2CCC[C@H]1CN(C(=O)c1cc3sc(Br)cc3n1Cc1ccc(OC)cc1)C2", "> 7.9"]
]}

###

- experiment description: Half life in human liver microsomes
- Type: ADME, microsome
Form field: half-life (one value per entry).
observable: half-life

{"columns": ["sample smiles", "reported measurement"],
 "data": [
  ["CCCNC(=O)C1CCN(C(=O)c2cc3scnc3n2Cc2ccc(OC)cc2)CC1", "27.7 min"],
  ["CCCNC(=O)C1CCN(C(=O)c2cc3nc(Br)sc3n2Cc2ccc(OC)cc2)CC1", "22.1 min"],
  ["CCCNC(=O)C1CCN(C(=O)c2cc3occc3n2Cc2ccc(OC)cc2)CC1", "2.74 min"],
  ["CCCNC(=O)[C@H]1[C@@H]2CCC[C@H]1CN(C(=O)c1cc3sc(Br)nc3n1Cc1ccc(OC)cc1)C2", "2.89 min"],
  ["CCCNC(=O)C1CCN(C(=O)c2cc3ccccc3n2Cc2ccc(OC)cc2)CC1", "2.66 min"],
  ["CCCNC(=O)C1CCN(C(=O)c2cccn2Cc2ccc(OC)cc2)CC1", "6.71 min"],
  ["CCCNC(=O)[C@@H]1C[C@H]2CCC[C@@H](C1)[C@@H]2NC(=O)c1cc2scnc2n1Cc1ccc(OC)cc1", "44.6 min"]
]}

###

- experiment description: Terminal half life in C57BL/6 mouse at 10 mg/kg, po
- Type: ADME, organism-based
- measurement setup: in vivo, read-out: beta t1/2 (converted)

{"columns": ["sample smiles", "half-life (min)"],
 "data": [
  ["CCCNC(=O)C1CCN(C(=O)c2cc3sc(-c4ccccc4)cc3n2Cc2ccc(OC)cc2)CC1", 142],
  ["CCCNC(=O)[C@@H]1C[C@H]2CCC[C@@H](C1)[C@@H]2NC(=O)c1cc2sc(Br)nc2n1Cc1ccc(OC)cc1", 83.4]
]}

###

- experiment description: Half life in human liver microsomes
- Type: ADME, microsome
observable: log10 of half-life (log10 of the value in min)

{"columns": ["compound", "log10 of half-life"],
 "data": [
  ["[2H]C([2H])([2H])C([2H])(NC(=O)C1CCN(C(=O)c2cc3sc(Br)cc3n2Cc2ccc(OC)cc2)CC1)C([2H])([2H])[2H]", 0.73],
  ["CCCNC(=O)[C@@H]1C[C@H]2CCC[C@@H](C1)[C@@H]2NC(=O)c1cc2sc(Br)nc2n1Cc1ccc(OC)cc1", 1.72],
  ["CCCNC(=O)C1CCN(C(=O)c2cc3sccc3n2Cc2ccc(OC)cc2)CC1", 1.03],
  ["CCCNC(=O)[C@H]1[C@@H]2CCC[C@H]1CN(C(=O)c1cc3sc(-c4ccccc4)nc3n1Cc1ccc(OC)cc1)C2", 1.55],
  ["CCCNC(=O)[C@H]1CC[C@H](NC(=O)c2cc3sc(Br)cc3n2Cc2ccc(OC)cc2)CC1", 0.60],
  ["CCCNC(=O)C1CCN(C(=O)c2ccc(Br)n2Cc2ccc(OC)cc2)CC1", 0.86],
  ["CCCNC(=O)C1CCN(C(=O)c2cc3[nH]cnc3n2Cc2ccc(OC)cc2)CC1", 1.88],
  ["CCCNC(=O)C1CC12CCN(C(=O)c1cc3sc(Br)nc3n1Cc1ccc(OC)cc1)CC2 (stereo not drawn)", 0.70]
]}

###

- experiment description: Plasma concentration in C57BL/6 mouse at 3 mg/kg, iv administered as single dose measured at 24 hrs by HPLC-MS/MS analysis
- Format: ADME, organism-based
The following compounds are listed with their measured concentration at 24 h values.
observable: concentration at 24 h

{"columns": ["sample smiles", "observable", "reported measurement"],
 "data": [
  ["CCCNC(=O)C1CCN(C(=O)c2cc3sc(-c4ccccc4)cc3n2Cc2ccc(OC)cc2)CC1", "concentration at 24 h", "< 0.5 ng/mL"],
  ["CCCNC(=O)[C@@H]1C[C@H]2CCC[C@@H](C1)[C@@H]2NC(=O)c1cc2sc(Br)nc2n1Cc1ccc(OC)cc1", "concentration at 24 h", "< 0.5 ng/mL"]
]}
